The reported numbers originate from patent US9776972B2.

Target: human PRMT6 (Homo sapiens)
Construct: Flag-PRMT6-His; made in house; host or cells: HEK 293F cells (BacMam baculovirus)
Sequence (Q96LA8 with tags, fused parts or gaps): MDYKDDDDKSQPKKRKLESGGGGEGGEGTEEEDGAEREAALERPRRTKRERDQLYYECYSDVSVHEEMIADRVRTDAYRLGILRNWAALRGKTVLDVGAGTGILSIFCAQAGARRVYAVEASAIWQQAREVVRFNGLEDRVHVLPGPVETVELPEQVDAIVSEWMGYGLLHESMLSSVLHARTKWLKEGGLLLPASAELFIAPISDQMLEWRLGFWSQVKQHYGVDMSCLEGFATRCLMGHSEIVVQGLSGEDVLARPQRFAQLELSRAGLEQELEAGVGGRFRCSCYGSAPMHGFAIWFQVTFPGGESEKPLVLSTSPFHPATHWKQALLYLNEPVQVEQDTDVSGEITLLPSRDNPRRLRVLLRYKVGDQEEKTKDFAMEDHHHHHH
Assay: PRMT6 Biochemical Assay (3H-SAM Flashplate, peptide substrate)
Conditions: Biochemical IC50 PRMT6, single experiment or average of multiple experiments
Structures can show the parent of a compound that is named as a salt.
Would you mind telling me the reported IC50 of each entry?
# unit: nM | format: bare number

[ask] # return recorded IC50 for entry CNCCN(C)Cc1c[nH]nc1-c1ccc(C(C)(C)COC)cc1 [Compound 313]
[reply] 113

[ask] # return recorded IC50 for entry CCNC(=O)c1cccc(-c2n[nH]cc2CN(C)CCN)c1 [Compound 197]
[reply] 67.2

[ask] # return recorded IC50 for entry CNCCN(C)Cc1c[nH]nc1-c1cccc2ccccc12 [Compound 57]
[reply] 10.3

[ask] # return recorded IC50 for entry CNCCN(C)Cc1n[nH]cc1-c1ccc(Oc2ccccc2C(=O)NC)cc1 [Compound 278]
[reply] 5.17

[ask] # return recorded IC50 for entry CN(CCN)Cc1nn(C)cc1-c1ccc(C#N)cc1 [Compound 83]
[reply] 52.8

[ask] # return recorded IC50 for entry CNCCN(C)Cc1c[nH]nc1-c1ccc(OCCCOC)cc1 [Compound 209]
[reply] 4.05

[ask] # return recorded IC50 for entry Cc1ccc(Cl)c(-c2n[nH]cc2CN(C)CCN)c1 [Compound 91]
[reply] 237

[ask] # return recorded IC50 for entry CC(C)CN1C(=O)COc2cc(-c3n[nH]cc3CN(C)CCN)ccc21 [Compound 193]
[reply] 247

[ask] # return recorded IC50 for entry CN(CCN)Cc1c[nH]nc1-c1ccc(Oc2ccccc2)c(C#N)c1 [Compound 202]
[reply] 2.9

[ask] # return recorded IC50 for entry CNCCN(C)Cc1c[nH]nc1-c1ccc(Oc2ccccc2)c(C#N)c1 [Compound 221]
[reply] 6.72

[ask] # return recorded IC50 for entry CN(CCN)Cc1n[nH]cc1-c1ccc(C2CC2)cc1 [Compound 104]
[reply] 45.3

[ask] # return recorded IC50 for entry CCCN(CCN)Cc1c[nH]nc1-c1ccc(F)cc1 [Compound 63]
[reply] 1150

[ask] # return recorded IC50 for entry CNCCN(C)Cc1n[nH]cc1-c1ccc(Oc2ccccc2F)cc1 [Compound 279]
[reply] 1.87

[ask] # return recorded IC50 for entry CNCCN(C)Cc1c[nH]nc1-c1ccc2ccccc2c1 [Compound 58]
[reply] 6.14

[ask] # return recorded IC50 for entry CNCCN(C)Cc1n[nH]cc1-c1ccc(Oc2ccccc2)c(C(=O)N(C)C)c1 [Compound 241]
[reply] 34.1

[ask] # return recorded IC50 for entry CNCCN(C)Cc1cn(CCOC)nc1-c1ccc(OC(C)C)cc1 [Compound 253, hydrochloride]
[reply] 748

[ask] # return recorded IC50 for entry CC(C)Cc1cccc(-c2n[nH]cc2CN(C)CCN)c1 [Compound 235]
[reply] 176

[ask] # return recorded IC50 for entry CNCCN(C)Cc1cnn(C)c1-c1ccc(Oc2ccccc2)cc1 [Compound 208]
[reply] 2.93

[ask] # return recorded IC50 for entry Cc1ccc(-c2n[nH]cc2CN(C)CCN)cc1 [Compound 162]
[reply] 7.71

[ask] # return recorded IC50 for entry CCOc1ccc(-c2n[nH]cc2CN(C)CCNC)cc1 [Compound 294]
[reply] 24.6
